- test-name: Quantitative High-Throughput drug screen in 47 multiple myeloma cell lines against the NCATS MIPE library collection: INA6_PLB cell viability assay (AID 1918965; further: nearly all actives have a fitted effect of over 55% in size)
- condition: INA6 myeloma viability, CellTiter-Glo ATP luminescence, 48 h; series mostly up to 45.8 µM
- Text: PI: Beverly A. Mock Ph.D. Laboratory of Cancer Biology and Genetics, Center for Cancer Research, National Cancer Institute, National Institute of Health, Bethesda, Maryland […] 5; Detector; 425V; Luminescence; Viewlux PerkinElmer. […] 1. […] Briefly, the corresponding myeloma cell lines were screened in 1,536-well plates with 500 cells, 5-uL per well for inhibition of cell viability (assessed by measuring ATP levels with CellTiterGlo). […]
Results filed as inconclusive are left out. Calls of active or inactive are those of the source. The call rests on the fitted dose curve; in most records, active means well fitted cell-killing curve with a large enough effect; inconclusive means small, poorly fitted or top-dose-only effect, or effect the other way; inactive means no such curve, though single readings can be large or run the other way.
Outcomes: active, inactive

- molecule: "COc1cc2c(c(OC)c1OC)-c1ccc(OC)c(=O)cc1[C@@H](NC(C)=O)CC2"
  assigned-class: "inactive"
- molecule: "Clc1ccc2nsnc2c1NC1=NCCN1"
  assigned-class: "inactive"
- molecule: "CC(C)Cc1ccc(C(C)C(=O)O)cc1 (stereo not given)"
  assigned-class: "active"
- molecule: "CN1CCN(CCCN2c3ccccc3Sc3ccc(Cl)cc32)CC1"
  assigned-class: "active"
- molecule: "CC1(CN2CCC(n3c(=O)[nH]c4ccccc43)CC2)OCc2ccccc2-n2cccc21 (stereo not given)"
  assigned-class: "active"
- molecule: "O=C(c1ccc(F)cc1)C1CCN(CCn2c(=O)[nH]c3ccccc3c2=O)CC1"
  assigned-class: "active"
- molecule: "CC(=O)OCC(CCn1cnc2cnc(N)nc21)COC(C)=O"
  assigned-class: "inactive"
- molecule: "NS(=O)(=O)c1cc2c(cc1Cl)NCNS2(=O)=O"
  assigned-class: "inactive"
- molecule: "NC(CO)C(=O)NNCc1ccc(O)c(O)c1O (stereo not given)"
  assigned-class: "inactive"
- molecule: "CCOC(=O)Nc1ccc(NCc2ccc(F)cc2)nc1N"
  assigned-class: "active"
- molecule: "CN1CCC(=C2c3ccccc3CC(=O)c3sccc32)CC1"
  assigned-class: "active"
- molecule: "Cn1c(=O)c2[nH]cnc2n(C)c1=O"
  assigned-class: "inactive"
- molecule: "O=c1[nH]cc(F)c(=O)[nH]1"
  assigned-class: "active"
- molecule: "CN(C)C(=N)N=C(N)N"
  assigned-class: "inactive"
- molecule: "COc1cc2nc(N3CCN(C(=O)C4COc5ccccc5O4)CC3)nc(N)c2cc1OC (stereo not given)"
  assigned-class: "active"
- molecule: "CS(=O)(=O)CCNCc1ccc(-c2ccc3ncnc(Nc4ccc(OCc5cccc(F)c5)c(Cl)c4)c3c2)o1"
  assigned-class: "active"
- molecule: "O=C1c2c(O)ccc(O)c2C(=O)c2c(NCCNCCO)ccc(NCCNCCO)c21"
  assigned-class: "active"
- molecule: "CC(COc1ccccc1)N(CCCl)Cc1ccccc1 (stereo not given)"
  assigned-class: "inactive"
- molecule: "CNCCCC12CCC(c3ccccc31)c1ccccc12"
  assigned-class: "active"
- molecule: "O=C(CCCN1CCC(O)(c2ccc(Cl)cc2)CC1)c1ccc(F)cc1"
  assigned-class: "active"
- molecule: "Clc1ccccc1C(c1ccccc1)(c1ccccc1)n1ccnc1"
  assigned-class: "active"
- molecule: "CCC1(c2ccccc2)C(=O)NCNC1=O"
  assigned-class: "active"
- molecule: "Cn1c(=O)c2c(ncn2C)n(C)c1=O"
  assigned-class: "inactive"
- molecule: "COc1ccc2c(c1)c(CC(=O)O)c(C)n2C(=O)c1ccc(Cl)cc1"
  assigned-class: "active"
- molecule: "CCCCc1oc2ccccc2c1C(=O)c1cc(I)c(OCCN(CC)CC)c(I)c1"
  assigned-class: "active"
- molecule: "CN1C2CCC1CC(OC(=O)C(CO)c1ccccc1)C2 (stereo not given)"
  assigned-class: "inactive"
- molecule: "CN(C)C(=O)C(CCN1CCC(O)(c2ccc(Cl)cc2)CC1)(c1ccccc1)c1ccccc1"
  assigned-class: "active"
- molecule: "CCN1CCCC1CNC(=O)c1cc(S(=O)(=O)CC)c(N)cc1OC (stereo not given)"
  assigned-class: "inactive"
- molecule: "CCC1(C)CC(=O)NC1=O (stereo not given)"
  assigned-class: "inactive"
- molecule: "OCCN1CCN(CCCN2c3ccccc3Sc3ccc(C(F)(F)F)cc32)CC1"
  assigned-class: "active"
- molecule: "CN(CCOc1ccc(NS(C)(=O)=O)cc1)CCc1ccc(NS(C)(=O)=O)cc1"
  assigned-class: "inactive"
- molecule: "O=C1Cc2cc(CCN3CCN(c4nsc5ccccc45)CC3)c(Cl)cc2N1"
  assigned-class: "active"
- molecule: "Cn1ccc2cc3c(cc21)CCN3C(=O)Nc1cccnc1"
  assigned-class: "active"
- molecule: "CC[C@@]1(O)C(=O)OCc2c1cc1n(c2=O)Cc2cc3c(CN(C)C)c(O)ccc3nc2-1"
  assigned-class: "active"
- molecule: "CC(C)C(=O)Nc1ccc([N+](=O)[O-])c(C(F)(F)F)c1"
  assigned-class: "active"
- molecule: "CC(C)NCC(O)COc1ccc(CCOCC2CC2)cc1 (stereo not given)"
  assigned-class: "inactive"
- molecule: "C[C@@H]1CC(=O)NN=C1c1ccc(NN=C(C#N)C#N)cc1"
  assigned-class: "active"
- molecule: "Nc1nc2c(ncn2COC(CO)CO)c(=O)[nH]1"
  assigned-class: "active"
- molecule: "N[C@@H](Cc1c[nH]c2ccc(O)cc12)C(=O)O"
  assigned-class: "inactive"
- molecule: "C[C@H]1c2cccc(O)c2C(O)=C2C(=O)[C@]3(O)C(O)=C(C(N)=O)C(=O)[C@@H](N(C)C)[C@@H]3[C@@H](O)[C@@H]21"
  assigned-class: "active"
